Just for reference, patent US7329657B2 is where these values come from.

# TESTED TARGET: PKC β-II (Homo sapiens, UniProt P05771)
# Sequence (P05771 1-673 isoform P05771-2): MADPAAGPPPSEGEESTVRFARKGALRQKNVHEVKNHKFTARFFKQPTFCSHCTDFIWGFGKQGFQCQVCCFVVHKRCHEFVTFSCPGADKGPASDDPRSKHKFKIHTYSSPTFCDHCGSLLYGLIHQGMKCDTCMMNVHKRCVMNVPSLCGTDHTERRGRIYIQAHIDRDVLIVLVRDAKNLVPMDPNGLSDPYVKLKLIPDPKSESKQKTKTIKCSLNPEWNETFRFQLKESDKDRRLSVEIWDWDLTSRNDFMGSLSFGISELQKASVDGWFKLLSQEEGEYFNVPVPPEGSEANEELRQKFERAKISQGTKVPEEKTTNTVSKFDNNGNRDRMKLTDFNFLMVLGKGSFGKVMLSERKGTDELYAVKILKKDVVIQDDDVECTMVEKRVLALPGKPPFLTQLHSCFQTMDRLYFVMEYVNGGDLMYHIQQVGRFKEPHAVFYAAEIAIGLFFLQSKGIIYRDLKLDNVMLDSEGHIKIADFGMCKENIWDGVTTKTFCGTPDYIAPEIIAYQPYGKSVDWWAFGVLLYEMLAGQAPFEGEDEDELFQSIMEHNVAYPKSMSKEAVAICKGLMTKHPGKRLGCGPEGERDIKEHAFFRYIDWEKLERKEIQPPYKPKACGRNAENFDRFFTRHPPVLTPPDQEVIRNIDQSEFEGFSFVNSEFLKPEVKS
# PROTOCOL DESCRIPTION: Protein Kinase C Histone-Based Assay, β-II isoform
# Format: biochemical
# EXPERIMENTAL PARAMETERS: histone III substrate, 30 μM ATP, 10 min at 30° C.; read-out: PKC Activity (IC50 μM, Histone Based Assay) Beta II
MEASURED METRIC: log10 IC50 (log10 of the value in µM)
Annotation: log10 of IC50, µM basis.

CNCCCn1nc(C2=C(c3cn(C)c4ccc(Cl)cc34)C(=O)NC2=O)c2ccccc21 : -1.74
CN(C)CCCn1nc(C2=C(c3cn(Cc4ccc5ccccc5n4)c4ccccc34)C(=O)NC2=O)c2ccccc21 : -1.80
O=C1NC(=O)C(c2nn(CCC3OCCO3)c3ccccc23)=C1c1cn(-c2cnc3ccccc3c2)c2ccccc12 : -1.54

Can you give me log10 IC50 for all of these, one by one?
1. CN(C)CCCn1nc(C2=C(c3cn(-c4cncnc4)c4ccccc34)C(=O)NC2=O)c2ccccc21
2. NCCCn1nc(C2=C(c3cn(-c4cccnc4)c4ccccc34)C(=O)NC2=O)c2ccccc21
3. CN(CCO)CCCn1nc(C2=C(c3cn(-c4ccc5ccccc5c4)c4ccccc34)C(=O)NC2=O)c2ccccc21
4. CN(C)CCCn1nc(C2=C(c3cn(-c4cccnc4)c4ccc(Cl)cc34)C(=O)NC2=O)c2ccccc21
5. CN1CCN(CCCn2nc(C3=C(c4cn(C)c5ccc(Cl)cc45)C(=O)NC3=O)c3ccccc32)CC1
6. CN(C)CCCn1nc(C2=C(c3cn(-c4cccnc4)c4ccccc34)C(=O)NC2)c2ccccc21
7. CN(C)CCCn1nc(C2=C(c3cn(-c4cccc5ccccc45)c4ccccc34)C(=O)NC2=O)c2ccccc21
8. CN(C)CCCn1nc(C2=C(c3cn(-c4csc5ccccc45)c4ccccc34)C(=O)NC2=O)c2ccccc21

1: -2.05; 2: -2.30; 3: -1.42; 4: -2.40; 5: -1.34; 6: -2.30; 7: -1.54; 8: -1.43

For every item in the list below, what is its measured log10 IC50?
1. Cn1cc(C2=C(c3nn(CCCN4CCCC4)c4ccccc34)C(=O)NC2=O)c2cc(Cl)ccc21
2. C=Cn1cc(C2=C(c3nn(CCCN(C)C)c4ccccc34)C(=O)NC2=O)c2cc(Cl)ccc21

1: -2.00; 2: -1.89

For each of the compounds below, state log10 IC50.
1. O=C1NC(=O)C(c2nn(CCCN3CCOCC3)c3ccccc23)=C1c1cn(-c2cnc3ccccc3c2)c2ccccc12
2. CN(C)CCCn1nc(C2=C(c3cn(-c4cccs4)c4ccccc34)C(=O)NC2=O)c2ccccc21

1: -2.22; 2: -2.10

###

Give IC50 for every item shown.
# TESTED TARGET: PKC α (Homo sapiens, UniProt P17252)
# PROTOCOL DESCRIPTION: Protein Kinase C Histone-Based Assay, α isoform
# Type: biochemical
# EXPERIMENTAL PARAMETERS: histone III substrate, 30 μM ATP, 10 min at 30° C.; read-out: PKC Activity (IC50 μM, Histone Based Assay) Alpha
Numbers only, in µM.

In the examples that follow, each entry is paired with its recorded IC50.
CN(C)CCCn1nc(C2=C(c3cn(-c4cccc5ccccc45)c4ccccc34)C(=O)NC2=O)c2ccccc21 [Compound 15] : 1.23
CN(CCO)CCCn1nc(C2=C(c3cn(C)c4ccc(Cl)cc34)C(=O)NC2=O)c2ccccc21 [Compound 79] : 0.065
C=Cn1cc(C2=C(c3nn(CC(O)CN(C)C)c4ccccc34)C(=O)NC2=O)c2ccccc21 (stereo not shown) [Compound 1] : 0.052

For each of the items listed, what is its IC50?
1. O=C1NC(=O)C(c2nn(CCCN3CCOCC3)c3ccccc23)=C1c1cn(-c2cccnc2)c2ccccc12 [Compound 68]
2. O=C1NC(=O)C(c2nn(CCCO)c3ccccc23)=C1c1cn(-c2cnc3ccccc3c2)c2ccccc12 [Compound 107]

1: 0.217; 2: 0.098

Need IC50 for each of these compounds.
1. O=C1NC(=O)C(c2nn(CCCN3CCOCC3)c3ccccc23)=C1c1cn(-c2ccc3ccccc3c2)c2ccccc12 [Compound 70]
2. O=C1NC(=O)C(c2nn(CCCO)c3ccccc23)=C1c1cn(-c2ccc3ccccc3c2)c2ccccc12 [Compound 84]

0.259
0.358
